Provide the reported IC50 of each item.
- System: HeLa
- TEST: Cytotoxicity against human HeLa cells after 48 hrs by MTS assay
- Type: functional, cell-based
Give just the numeric value; µM need not be written.

QUERY: # lookup: IC50 of COc1cc(/C=C/C(=O)OC[C@H]2O[C@]3(COC(C)(C)O[C@H]4[C@H](O[C@@H]5COC(C)(C)O[C@H]5[C@@H]4O)O3)[C@@H](OC(=O)/C=C/c3ccc(OC(C)=O)c(OC)c3)[C@@H]2O)ccc1OC(C)=O
RESULT: 6.01

QUERY: # lookup: IC50 of O=C(/C=C/c1ccc(O)cc1)OC[C@H]1O[C@@](CO)(O[C@H]2O[C@H](COC(=O)/C=C/c3ccc(O)cc3)[C@@H](O)[C@H](OC(=O)/C=C/c3ccc(O)cc3)[C@H]2O)[C@@H](OC(=O)/C=C/c2ccc(O)cc2)[C@@H]1O
RESULT: 1.7

QUERY: # lookup: IC50 of COc1cc(/C=C/C(=O)OC[C@H]2O[C@H](O[C@]3(CO)O[C@H](COC(=O)/C=C/c4ccc(O)cc4)[C@@H](O)[C@@H]3OC(=O)/C=C/c3ccc(O)cc3)[C@H](O)[C@@H](OC(=O)/C=C/c3ccc(O)cc3)[C@@H]2O)ccc1O
RESULT: 3.12

QUERY: # lookup: IC50 of COc1cc(/C=C/C(=O)OC[C@H]2O[C@]3(COC(C)(C)O[C@H]4[C@H](O[C@@H]5COC(C)(C)O[C@H]5[C@@H]4O)O3)[C@@H](OC(=O)/C=C/c3ccc(O)c(OC)c3)[C@@H]2OC(=O)/C=C/c2ccc(O)c(OC)c2)ccc1O
RESULT: 4.2

###

- System: HeLa
- TEST: Cytotoxicity against human HeLa cells after 48 hrs by MTS assay
- Type: functional, cell-based
MEASUREMENT_TYPE: pIC50
pIC50 (log units): -log10 of the concentration in mol/L.

QUERY: # lookup: pIC50 of COc1cc(/C=C/C(=O)OC[C@H]2O[C@H](O[C@]3(CO)O[C@H](COC(=O)/C=C/c4ccc(O)cc4)[C@@H](O)[C@@H]3OC(=O)/C=C/c3ccc(O)cc3)[C@H](O)[C@@H](OC(=O)/C=C/c3ccc(O)c(OC)c3)[C@@H]2O)ccc1O
RESULT: 5.78

QUERY: # lookup: pIC50 of COc1cc(/C=C/C(=O)OC[C@H]2O[C@]3(COC(C)(C)O[C@H]4[C@H](O[C@@H]5COC(C)(C)O[C@H]5[C@@H]4O)O3)[C@@H](OC(=O)/C=C/c3ccc(OC(C)=O)c(OC)c3)[C@@H]2OC(=O)/C=C/c2ccc(OC(C)=O)c(OC)c2)ccc1OC(C)=O
RESULT: 6.80

QUERY: # lookup: pIC50 of COc1cc(/C=C/C(=O)OC[C@H]2O[C@@](CO)(O[C@H]3O[C@H](CO)[C@@H](O)[C@H](OC(=O)/C=C/c4ccc(O)c(OC)c4)[C@H]3O)[C@@H](OC(=O)/C=C/c3ccc(O)c(OC)c3)[C@@H]2OC(=O)/C=C/c2ccc(O)c(OC)c2)ccc1O
RESULT: 5.79
